The following variants are listed with their measured protein stability index values.
B1: CCND2 (parent)
chain: YFKCVQKDIQPYMRRMVATWMLEV

# Variants of: B1
# Experiment: protein stability index of a GFP-peptide fusion (GPS, HEK-293T) (PSI 1-6); higher = more stable;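 note: lentivirally expressed fusions sorted by FACS into six bins by GFP to DsRed ratio, PSI derived from sequencing read proportions per bin multiplied by bin number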
# Run Parameters: c terminus: a fixed tail appended
Readout Name: protein stability index

{"columns": ["Var", "Quantitative Result"],
 "data": [
  ["K7W", 2.12],
  ["Q6R", 2.65],
  ["Q6E", 3.62],
  ["M16R", 2.65],
  ["Y12W", 2.43],
  ["M21D", 2.43],
  ["L22Q", 1.96],
  ["V17D", 3.18],
  ["R14W", 1.74],
  ["V24L", 2.68],
  ["Q6N", 1.9],
  ["E23I", 3.03],
  ["V24P", 1.91],
  ["I9G", 3.25],
  ["Q10W", 3.11],
  ["L22R", 1.96],
  ["A18Q", 3.45],
  ["R14S", 3.39],
  ["D8E", 2.37],
  ["R14K", 1.44],
  ["E23H", 2.28],
  ["V17R", 3.03]
]}

Source of measurements: the supplement of paper PMC10567573
